Listing of entries alongside the reported EC50.
target: human TGR5 (h-TGR5) (Homo sapiens); construct: expressed in transfected cells; assay: TGR5/CRE-Luciferiase Assay (HEK 293 hTGR5/CRE-Luc cells); type: cell-based; conditions: h-TGR5 CRE-Luc EC50, Table 1; read-out: CRE-Luc (EC50)
property measured: EC50

structure: COc1ccc(C(C)(C)c2cnc(C(=O)NC3CCCCC3)n2-c2ccc(F)cc2)cc1OC
property measured: EC50
result: 1000 to 10000 nM
--
structure: CC(C)(c1ccc(Cl)c(Cl)c1)c1cnc(SCc2ccc(F)c(S(C)(=O)=O)c2)n1-c1ccc(F)cc1
property measured: EC50
result: < 100 nM
--
structure: CC(C)(c1ccc(Cl)c(Cl)c1)c1cnc(SCc2ccc(F)c(S(N)(=O)=O)c2)n1-c1ccc(F)cc1
property measured: EC50
result: < 100 nM
--
structure: CC(C)(c1ccc(Cl)c(Cl)c1)c1cnc(S(=O)(=O)NCc2ccc(F)cc2Cl)n1-c1ccc(F)cc1
property measured: EC50
result: < 100 nM
--
structure: COc1cc(-n2c(C(C)(C)c3ccc(Cl)c(Cl)c3)cnc2SCc2c(F)cc(C(=O)O)cc2Cl)ccc1F
property measured: EC50
result: < 100 nM
--
structure: COc1cc(C(C)(C)c2cnc(SCC3CCN(S(C)(=O)=O)CC3)n2-c2ccc(F)cc2)ccc1Cl
property measured: EC50
result: < 100 nM
--
structure: COc1cc(-n2c(C(C)(C)c3ccc(Cl)c(OC)c3)cnc2SCc2ccc(S(N)(=O)=O)cc2Cl)ccc1F
property measured: EC50
result: < 100 nM
--
structure: COc1cc(C(C)(C)c2cnc(SCc3c(F)cc(C(=O)NC4CCN(c5nnn[nH]5)CC4)cc3Cl)n2-c2ccc(F)cc2)ccc1Cl
property measured: EC50
result: < 100 nM
--
structure: CC(C)(c1ccc(Cl)c(F)c1)c1cnc(SCc2c(F)cccc2Cl)n1-c1ccc(F)cc1
property measured: EC50
result: < 100 nM
--
structure: CC(C)(c1ccc(Cl)c(Cl)c1)c1cnc(SCc2c(F)cccc2Cl)n1CCO
property measured: EC50
result: 100 to 1000 nM
--
structure: CC(C)(c1ccc2c(c1)OCCO2)c1cnc(SCc2c(F)cccc2Cl)n1-c1ccc(F)cc1
property measured: EC50
result: < 100 nM
--
structure: CC(C)(c1ccc(Cl)c(Cl)c1)c1cnc(SCC2CCN(c3nnn[nH]3)CC2)n1-c1ccc(F)cc1
property measured: EC50
result: < 100 nM
--
structure: CC(C)(c1ccc(Cl)c(Cl)c1)c1cnc(S(=O)(=O)Cc2c(Cl)cccc2Cl)n1-c1ccc(F)cc1
property measured: EC50
result: 100 to 1000 nM
--
structure: CC(C)(c1ccc(Cl)c(Cl)c1)c1cnc(SCc2ccc(Cl)cc2C(=O)O)n1-c1ccc(F)cc1
property measured: EC50
result: 100 to 1000 nM
--
structure: CC(C)(c1ccc(Cl)c(OCCCN2CCOCC2)c1)c1cnc(SCc2c(F)cc(C(=O)O)cc2Cl)n1-c1ccc(F)cc1
property measured: EC50
result: 100 to 1000 nM

###

Below, each entry is listed with its recorded pEC50.
molecular target: human TGR5 (h-TGR5) (Homo sapiens, UniProt Q8TDU6); construct: expressed in transfected cells; assay: TGR5/CRE-Luciferiase Assay (HEK 293 hTGR5/CRE-Luc cells); type: cell-based; conditions: h-TGR5 CRE-Luc EC50, Table 1; read-out: CRE-Luc (EC50)
Sequence (Q8TDU6 whole entry): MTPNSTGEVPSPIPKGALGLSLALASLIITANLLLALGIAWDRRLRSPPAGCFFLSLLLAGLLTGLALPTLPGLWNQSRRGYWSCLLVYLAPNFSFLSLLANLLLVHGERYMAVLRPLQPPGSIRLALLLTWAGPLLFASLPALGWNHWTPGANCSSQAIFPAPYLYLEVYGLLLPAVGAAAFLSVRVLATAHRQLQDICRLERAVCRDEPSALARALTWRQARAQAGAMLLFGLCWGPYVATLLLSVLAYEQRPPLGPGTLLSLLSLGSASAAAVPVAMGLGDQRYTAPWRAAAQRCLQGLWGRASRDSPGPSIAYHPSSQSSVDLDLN
pEC50: −log10 of the molar value.

structure: COc1cc(C(C)(C)c2cnc(SCc3c(F)cc(OCCNC(=N)N)cc3Cl)n2-c2ccc(F)cc2)ccc1Cl
pEC50: > 7.00
--
structure: COc1ccc(C(C)(C)c2cnc(SCc3ccc(S(=O)(=O)NC(=O)NC(C)C)cc3Cl)n2-c2ccc(F)cc2)cc1Cl
pEC50: 6.00 to 7.00
--
structure: COc1cc(C(C)(C)c2cnc(SCc3ccc(C(=O)NCS(=O)(=O)O)cc3F)n2-c2ccc(F)cc2)ccc1Cl
pEC50: > 7.00
